melting point: recorded values

Example results:
O=C(NCCO[N+](=O)[O-])c1cccnc1    92.5 °C
CC(=O)Oc1nc(CCc2ccccc2)nn1-c1ccccc1    109 °C
NNC(=O)c1cccc(OCc2ccccc2)c1    113 to 115 °C
CSc1scc2c1C(=NO)CC(C)(C)C2    151 to 154 °C
CN1CCCN(c2ccc(CO)cc2)CC1    97 °C

Prompt: Fill in: melting point of Nc1nnc(-c2ccccc2)c(Nc2ccc(Cl)cc2Cl)n1 is ___
Completion: 222 to 223 °C

Prompt: What value of melting point has been reported for the following molecule? O=S(=O)(Cl)c1ccc2c(c1)CCO2
Completion: 84 to 85 °C

Prompt: Endpoint output: melting point of CN(C)CCc1c[nH]c2ccccc12 . Value?
Completion: 46 °C

Prompt: Bench note: what melting point did Clc1ccc(Cl)c(CBr)c1 show?
Completion: 41 °C

Prompt: Which melting point value belongs to O=C(O)c1cccc(N2CCCC2)n1 ?
Completion: 134 to 136 °C

Prompt: Quick check: melting point of C(=C/c1ccc(/N=C/c2ccccc2)cc1)/c1ccc(/N=C/c2ccccc2)cc1 ?
Completion: 104 °C

Prompt: Which melting point value belongs to Cc1ccc2c(c1)C(=O)OC2=O ?
Completion: 88 to 92 °C

Prompt: Quick one: melting point for O=S(=O)(Cl)c1cccc2nsnc12 ?
Completion: 148 to 150 °C

Prompt: Endpoint output: melting point of CC(=O)Oc1nn(-c2ccccc2)cc1Br . Value?
Completion: 82 to 85 °C

Prompt: May I ask what melting point has been recorded for O=CC(C=O)c1cnccn1 ?
Completion: 202 to 207 °C

Prompt: Returns the measured melting point for the input molecule. Input: Cc1ccc2nc(C(F)(F)F)cc(Cl)c2c1
Completion: 62 to 65 °C
